- assay.explanation: Encapsulation rate of lipid nanoparticles (Ribogreen)
- Assay type: physicochemical
- test.conditions: Table 5; EGFP mRNA-loaded lipid nanoparticles; TxT/DSPC/chol/PEG-DMG=50/3/47/1.5 (mol%); total flow rate 3.0 mL/min
Each entry below carries its recorded mRNA encapsulation rate.

[
  {
    "compound": "CCCCCCCCN(CCCCCCCC)C(=O)CCCC(=O)OCC(COC(=O)CCCC(=O)N(CCCCCCCC)CCCCCCCC)(COC(=O)CCCC(=O)N(CCCCCCCC)CCCCCCCC)NC(=O)CCN1CCCCC1",
    "units.text": "%",
    "mRNA encapsulation rate": 99.2
  },
  {
    "compound": "CCCCCCN(CCCCCC)C(=O)CCCC(=O)OCC(COC(=O)CCCC(=O)N(CCCCCC)CCCCCC)(COC(=O)CCCC(=O)N(CCCCCC)CCCCCC)NC(=O)CCN1CCCCC1",
    "units.text": "%",
    "mRNA encapsulation rate": 95.5
  },
  {
    "compound": "CCCCCCCCC(CCCCCC)CNC(=O)CCCC(=O)OCC(COC(=O)CCCC(=O)NCC(CCCCCC)CCCCCCCC)(COC(=O)CCCC(=O)NCC(CCCCCC)CCCCCCCC)NC(=O)CCN1CCCCC1 (stereo not drawn)",
    "units.text": "%",
    "mRNA encapsulation rate": 99.1
  }
]
